System: MOLM-13 (FLT3 ITD+/− mutant type)
Test: In vitro growth inhibition (GI50), MOLM-13
Type: cell-based, human
Settings: Homo sapiens, MOLM-13; Cell lines of leukemia; read-out: GI 50 MOLM-13 FLT3 (ITD+/−)
# GI50 values compiled below

Worked examples follow.
Would you kindly share the measured GI50 for CC(C)(C)c1cc(NC(=O)Nc2ccc(-n3cnc4ccc(OCCN5CCOCC5)cc43)cc2)no1 ? 0.1 to 1 nM

Now consider CC(C)(C)c1cc(N)n(C(=O)Nc2ccc(-n3cnc4cc(F)ccc43)cc2)n1 and answer again. 10 to 100 nM

More entries:
Would you kindly share the measured GI50 for CC(C)(C)c1cc(N)n(C(=O)Nc2ccc(-n3cnc4cc(OCCN5CCOCC5)ccc43)cc2)n1 ? 1 to 10 nM

Now consider CC(C)(C)c1cc(NC(=O)Nc2ccc(-n3cnc4cc(OCCCCc5nnnn5C5CCCCC5)ccc43)cc2)[nH]n1 and answer again. 1 to 10 nM
